# Measured On: Tyrosine-protein kinase SYK (Homo sapiens)
# Procedure Details: Inhibition of spleen tyrosine kinase (unknown origin)
# Test Settings: read-out: IC50
pIC50: −log10 of the molar value.
Hi there, I'd appreciate the recorded pIC50 for every entry that follows.

| Compound Smiles | Assay Readout | Readout Value |
| --- | --- | --- |
| CN(C)CCN(C)c1ncc(C(N)=O)c(Nc2cccc(C(F)(F)F)c2)n1 | pIC50 | < 5.00 |

Give pIC50 for all compounds that follow.
1. CNC(=O)c1cnc(NCCN)nc1Nc1cccc(C(F)(F)F)c1
2. CNc1nc(NCCN)ncc1C(N)=O
3. CN(C)C(=O)c1cnc(NCCN)nc1Nc1cccc(C(F)(F)F)c1

Result:
1: < 5.00; 2: < 5.00; 3: < 5.00

Data provenance is ChEMBL document CHEMBL2424544.
